src = ChEMBL document CHEMBL1131712

# Test system: rhinovirus B14
# METHOD: Inhibitory concentration required against Human rhinovirus-14 (HRV-14) using plaque reduction assay
# Format: functional, organism-based, Enterovirus
# DETAILS: Rhinovirus B
Measured IC50 of individual entries
Write it as a number; the unit µg/mL goes unstated.

# count of solved cases: 4
SMI: CNC(=O)/C=C(\c1ccccc1)c1ccc2nc(N)c(C(=O)c3ccccc3)n2c1
UNIT TAG: µg/mL
IC50: 0.24

SMI: CNC(=O)/C=C(\c1ccccc1)c1ccc2nc(N)c(C(=O)C(C)(C)C)n2c1
UNIT TAG: µg/mL
IC50: 0.17

SMI: CC(C)S(=O)(=O)n1c(N)nc2ccc(/C(=N/O)c3ccccc3)cc21
UNIT TAG: µg/mL
IC50: 0.045

SMI: CNC(=O)/C=C(\c1ccccc1)c1ccc2nc(N)c(C(=O)c3ccc(F)cc3)n2c1
UNIT TAG: µg/mL
IC50: 0.37

Let's switch to this compound now.
Form field: reported IC50 of CNC(=O)/C=C(\c1ccccc1)c1ccc2nc(N)c(C(C)=O)n2c1
2.48

* * *

Recorded CC50 for the following compounds
# METHOD: Cellular toxic concentration against Human rhinovirus-14 (HRV-14) using cytopathic effect assay(CPE/XTT)
# Assay type: organism-based, Enterovirus
# DETAILS: read-out: TC50 (the source's name)
Please give a number only; it is taken to be in µg/mL.

Some compounds with recorded CC50:
SMI: CNC(=O)/C=C(\c1ccccc1)c1ccc2nc(N)c(C(C)=O)n2c1
UNIT TAG: µg/mL
RESULT VALUE: 22.8
//
SMI: CNC(=O)/C=C(\c1ccccc1)c1ccc2nc(N)c(C(=O)c3ccccc3)n2c1
UNIT TAG: µg/mL
RESULT VALUE: 2.95

Could you now consider this next compound?
What value of CC50 has been recorded for this entry: CNC(=O)/C=C(\c1ccccc1)c1ccc2nc(N)c(C(=O)c3ccc(F)cc3)n2c1
3.97
